Total Mass Compound on exoskeleton by entry:
- Test system: G. pulex exoskeleton
- Condition context: both, Gammarus pulex, in vivo, pH 8.2

Molecule: CC(C)NCC(O)COc1cccc2ccccc12 (centres unmarked) [Propranolol, propranolol]
Target system: G. pulex exoskeleton
Total Mass Compound on exoskeleton: 44 (n=1) pg
//
Molecule: CNC(=C[N+](=O)[O-])NCCSCc1ccc(CN(C)C)o1 [Ranitidine, ranitidine]
Target system: G. pulex exoskeleton
Total Mass Compound on exoskeleton: 58 (n=1) pg
//
Molecule: COCCc1ccc(OCC(O)CNC(C)C)cc1 (centres unmarked) [Metoprolol, metoprolol]
Target system: G. pulex exoskeleton
Total Mass Compound on exoskeleton: 14 (n=2) pg
//
Molecule: CN(C)CCCN1c2ccccc2CCc2ccccc21 [Imipramine, imipramine]
Target system: G. pulex exoskeleton
Total Mass Compound on exoskeleton: 50 (n=2) pg
//
Molecule: O=C(O)Cc1ccccc1Nc1c(Cl)cccc1Cl [Diclofenac, diclofenac]
Target system: G. pulex exoskeleton
Total Mass Compound on exoskeleton: 368 (n=4) pg
